From: patent US8008547B2

Listing of recorded Kcat by entry.
- Experiment description: Standard protocol for determination of kcat and KM (continuous spectrophotometric assay, Acetyl CoA hydrolysis at 235 nm)
- Type: biochemical
- Assay setup: purified protein; about 23° C.; 20 mM HEPES pH 6.8, 10% ethylene glycol, 0.2 mM acetyl CoA
Observable: Kcat

[
  {
    "Molecule": "SEQ ID NO: 442: GAT polypeptide (protein, 0_5B8, GAT polypeptide) MIEVKPINAEDTYELRHKILRPNQPIEACMYESDLLRGAFHLGGFYRGKLISIASFHQAEHSDLQGQKQYQLRGMATLEGYRDQKAGSSLIRHAEQILRKRGADLLWCNARTSASGYYKKLGFSEQGEIFDTPPVGPHILMYKRLT",
    "Observable": "Kcat",
    "Recorded result": "2.38 s⁻¹"
  },
  {
    "Molecule": "SEQ ID NO: 332: GAT polypeptide (protein, 15_12D9, GAT polypeptide) MIEVKPINAEDTYEIRHRILRPNQPLEACKYETDLLRGTFHLGGYYRGKLVSIASFHQAEHPELEGQKQYQLRGMATLEEYREQKAGSTLIRHAEELLRKKGADLLWCNARTSASGYYKKLGFSEQGEVYDIPPVGPHILMYKKLT",
    "Observable": "Kcat",
    "Recorded result": "0.995 s⁻¹"
  }
]
